- Tested on: PC-3
- Test: NCI tumour cell line growth inhibition, 48 h
Active and inactive are the calls of the source. Rule as the data show it: active = GI50 up to about 1.1 µM and inactive = higher.
Tick one outcome: active, inactive

[[record]]
compound = "Cn1ccc2c(c1=O)C(=O)OC2(C)C"
test_system = "PC-3"
class_label = "inactive"


Task: What did the test return for Cn1c2ccccc2c(=O)c2c(O)cc3c(c21)C1OCC(C)(O)C1O3 (configuration not stated) ?
Output: inactive

Task: What did the test return for "CCCNc1ncnc2c1ncn2C" ?
Output: inactive

Task: What did the test return for COc1ccc(/N=N/C(=O)NC(CC(C)C)C(=O)NC(CC(C)C)C(=O)O)cc1 (configuration not stated) ?
Output: inactive

Task: What did the test return for Cc1ccc(NC(=O)CC(=O)N2N=C(N(C)c3ccccc3)CC2c2ccccc2)cc1 (configuration not stated) ?
Output: inactive

Task: What did the test return for "Cc1nc(C(N)=S)sc1C(=O)CC(=O)C(=O)Nc1ccc(Br)cc1" ?
Output: inactive

Task: What did the test return for "N#Cc1c2c([nH]c(=O)c1C#N)CCCC2" ?
Output: inactive

Task: What did the test return for "COC(=O)c1c2c(cc3c1CC1(Cc4cc5c(cc4C1)CCC5)C3)CCC2" ?
Output: inactive

Task: What did the test return for Nc1cccc(C2CCCc3c2[nH]c2ccccc32)c1 (configuration not stated) ?
Output: inactive

Task: What did the test return for COC(=O)C1[C@H](C(=O)OC)C1(Br)CBr (some centres not stated) ?
Output: inactive

Task: What did the test return for "O=C1/C(=C\c2ccc(Cl)cc2Cl)Sc2scc(-c3ccc(O)c(O)c3)[n+]21" ?
Output: inactive

Task: What did the test return for "CNC(=S)Nc1ccc(OC)c2ccccc12" ?
Output: inactive

Task: What did the test return for O=C(CC(=O)N1N=C(N2c3ccccc3Sc3ccccc32)CC1c1ccccc1)Nc1ccccc1Cl (configuration not stated) ?
Output: inactive

Task: What did the test return for CC(C)(C)[Si](C)(C)OC1/C(=C/C#N)C(n2ccc(=O)[nH]c2=O)OC1CO (configuration not stated) ?
Output: inactive

Task: What did the test return for "O=C1/C(=C/Cc2ccco2)N=C(c2ccccc2)N1c1nc2ccc(Sc3ccccc3)cc2[nH]1" ?
Output: inactive

Task: What did the test return for "CN1C(=O)[C@@H]2[C@@H]3c4ccccc4N[C@@H]3c3[nH]c4ccccc4c3[C@@H]2C1=O" ?
Output: inactive

Task: What did the test return for "O=C(/C=C/c1ccc(O)c(O)c1)O[C@H]1CCCC[C@@H]1OC(=O)/C=C/c1ccc(O)c(O)c1" ?
Output: inactive

Task: What did the test return for CCOC(=O)Oc1cc2c(c(OC)c1OC)-c1ccc(OC)c(=O)cc1C(NC(C)=O)CC2 (configuration not stated) ?
Output: active

Task: What did the test return for "[N-]=[N+]=Nc1ccc2c(c1)Sc1ccccc1N2CCCCN1CCN(C(=O)CCNC(=O)Cc2ccc(C(=O)c3ccccc3)cc2)CC1" ?
Output: inactive

Task: What did the test return for "CC1(C)SCc2nc3ccccc3n21" ?
Output: inactive

Task: What did the test return for "CC(C)(C)[Si](C)(C)OCCOCn1cc(F)c(=O)[nH]c1=O" ?
Output: inactive

Task: What did the test return for CC(Br)CN1CCOCC1 (configuration not stated) ?
Output: inactive

Task: What did the test return for "c1ccc(-c2nc(-c3ccccc3)c(-c3ccccc3)[nH]2)cc1" ?
Output: inactive

Task: What did the test return for CC1C2(C)OC(=N)C(C#N)(C(C)O2)C1(C#N)C#N (configuration not stated) ?
Output: inactive

Task: What did the test return for "C=Cn1c([N+](=O)[O-])cnc1/C=C/c1ccc(C(=O)OCCN2CCOCC2)cc1" ?
Output: inactive

Task: What did the test return for Cc1ccc(S(N)(=O)=O)cc1 [P-TOLUENESULFONAMIDE] ?
Output: inactive

Task: What did the test return for "CN(CCSCCN(C)C(=O)OC(C)(C)C)C(=O)OC(C)(C)C" ?
Output: inactive

====

Some compounds, each annotated with its measured GI50.
- Tested on: UO-31
- Test: NCI tumour cell line growth inhibition, 48 h
The source made the active and inactive calls. Rule as the data show it: active = GI50 up to about 1.1 µM and inactive = higher. Residues, ends and D or L forms follow the SMILES beside them. *: point of attachment. Boc = CC(C)(C)OC(=O)*

[[record]]
compound = "COC(=O)C(Cc1c[nH]c2ccccc12)NC(=O)C(Cc1c[nH]c2ccccc12)NC(=O)C(Cc1c[nH]c2ccccc12)NC(=O)C(Cc1c[nH]c2ccccc12)NC(=O)C(Cc1c[nH]c2ccccc12)NC(=O)C(Cc1c[nH]c2ccccc12)NC(=O)OC(C)(C)C (centres undefined) (Boc-WWWWWW-OMe; configuration not given here)"
test_system = "UO-31"
measurement_name = "GI50"
result = "33 µM (inactive)"

[[record]]
compound = "O=C1NC2c3c(I)sc(I)c3C(O)C2O1 (centres undefined)"
test_system = "UO-31"
measurement_name = "GI50"
result = "> 100 µM (inactive)"

[[record]]
compound = "CCN(CC)CCNc1ccc2nnn3c4ccc([N+](=O)[O-])cc4c(=O)c1c23"
test_system = "UO-31"
measurement_name = "GI50"
result = "3.44 µM (inactive)"

[[record]]
compound = "OCCCCCNc1ccnc2cc(Cl)ccc12"
test_system = "UO-31"
measurement_name = "GI50"
result = "24.2 µM (inactive)"

[[record]]
compound = "Cc1ccc(/C=N/Nc2nncc3ccccc23)s1"
test_system = "UO-31"
measurement_name = "GI50"
result = "> 100 µM (inactive)"


Entry "Cc1nc2c(o1)/C(=N\c1ccccc1)c1nc(C)oc1/C2=N/c1ccccc1" , GI50 reported as 17.2 µM (inactive)

Entry "Cn1c(=O)[nH]c2c(c1=O)C(=O)CN2" , GI50 reported as > 100 µM (inactive)

Entry COC1(OC)N=C(N)C2(C#N)C(C)CC(=O)N(N(C)C)C12C#N (centres undefined) , GI50 reported as > 100 µM (inactive)

Entry O=[N+]([O-])c1ccc2c(c1)nc(Cc1ccccc1)n2C[C@@H]1CCCN2CCCCC12 (some centres undefined) , GI50 reported as 6.49 µM (inactive)

====

- Tested on: U-251
- Test: NCI tumour cell line growth inhibition, 48 h
Activity calls are given as the source filed them. Rule as the data show it: active = GI50 up to about 1.1 µM and inactive = higher.
Tick one outcome: active, inactive

A selection of reference data follows.
[[record]]
compound = "O=C(O)C(CS)Nc1c2ccccc2[n+]([O-])c2ccccc12 (stereo not drawn)"
class_label = "inactive"

[[record]]
compound = "CN(C)c1ccc(/C=c2/c3ccccc3n3nc4ccccc4c23)cc1"
class_label = "inactive"

[[record]]
compound = "CCOC(=O)c1nnsc1N/N=C\\c1ccc([N+](=O)[O-])cc1"
class_label = "inactive"


Task: What did the test return for "CCOC(=O)C/C(N)=C(\C#N)C(=O)OCC" ?
Output: inactive

Task: What did the test return for O=C(CNC(=O)OCc1ccccc1)NCCCCC(NC(=O)OCc1ccccc1)C(=O)O (stereo not drawn) ?
Output: inactive

Task: What did the test return for "CC(=O)/C(=C/n1c(=S)[nH]c2ccccc21)C(=O)Nc1ccccc1C" ?
Output: inactive

Task: What did the test return for CC1=NC(C(C)C)C(=O)O1 (stereo not drawn) ?
Output: inactive

Task: What did the test return for "C(=N\c1nc2cc3sc(/N=C/c4ccccc4)nc3cc2s1)/c1ccccc1" ?
Output: inactive

Task: What did the test return for COC(=O)/C(=N\NC(=S)NN)C(C(=O)OC)C(=O)C(=O)Nc1cccc(C(F)(F)F)c1 (stereo not drawn) ?
Output: inactive

Task: What did the test return for "CCOc1cc(NC(C)=O)ccc1C(=O)NNC(=O)c1ccccc1OC(C)=O" ?
Output: inactive

====

Target or system HCT-15; recorded quantity GI50.

Example compounds with recorded GI50:
[[record]]
compound = "O=C(Cn1c2ccc(Br)cc2c2nc3ccccc3nc21)N1CCOCC1"
measurement_name = "GI50"
result = "> 100 µM"

[[record]]
compound = "CCN(CC)C(=S)N/N=C/c1cc([N+](=O)[O-])ccc1O"
measurement_name = "GI50"
result = "3.62 µM"

[[record]]
compound = "O=C(CSc1nc2ccc(I)cc2c(=O)n1Cc1ccccc1)NNC(=O)c1ccccc1"
measurement_name = "GI50"
result = "16.5 µM"

[[record]]
compound = "Cc1ccc(S(=O)(=O)N(CC(O)COc2ccccc2)c2c(F)c(F)c(F)c(F)c2F)cc1 (stereo not given)"
measurement_name = "GI50"
result = "16.5 µM"

[[record]]
compound = "NC(=O)/N=C1\\NC(Cc2ccccc2)C(=O)N1Cc1ccccc1 (stereo not given)"
measurement_name = "GI50"
result = "> 100 µM"


Form field, GI50 with HCT-15, item Cc1cc(O)c2c(c1O)C(=O)c1cccc(O)c1C2=O [ISLANDICIN] : > 100 µM

Form field, GI50 with HCT-15, item "N#Cc1c2c([nH]c(=O)c1C#N)CCCC2" : > 100 µM

Form field, GI50 with HCT-15, item "CN1C(=O)[C@@H]2[C@@H]3c4ccccc4N[C@@H]3c3[nH]c4ccccc4c3[C@@H]2C1=O" : 18.8 µM

Form field, GI50 with HCT-15, item "O=C(O)c1cc(-c2ccc3cc(O)c(O)cc3c2)ccc1O" : > 12.5 µM

Form field, GI50 with HCT-15, item "CCOC(=O)NC(=O)c1cn(CCNCCO)c(=O)[nH]c1=O" : > 100 µM
